target: WT STING (Homo sapiens, UniProt Q86WV6, H232R); assay: Differential scanning fluorimetry with WT STING; assay type: binding; design: truncated human WT STING or AQ STING (amino acid residues 140-343); 8xHis (N, cleaved yes); SUMO (N, cleaved yes); made in house; host or cells: E. coli Rosetta-gami B (DE3); details: thermal shift, truncated human WT STING 0.1 mg/ml, 150 μM CDN; read-out: DSF ΔTm WT STING
Sequence (Q86WV6 140-343 H232R): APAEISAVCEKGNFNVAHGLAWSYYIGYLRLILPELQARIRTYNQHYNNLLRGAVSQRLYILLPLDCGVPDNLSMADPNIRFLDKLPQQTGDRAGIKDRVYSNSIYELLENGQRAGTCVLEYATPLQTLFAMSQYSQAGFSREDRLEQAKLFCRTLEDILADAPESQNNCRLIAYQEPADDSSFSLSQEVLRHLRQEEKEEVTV

COMPOUND	ΔTm at 150 µM, °C
Nc1nc2c(ncn2[C@@H]2CO[C@@H]3COP(=O)(O)O[C@H]4[C@H](n5cnc6c(N)ncnc65)CO[C@@H]4COP(=O)(O)O[C@@H]23)c(=O)[nH]1	2.4
Nc1ncnc2c1ncn2[C@@H]1CO[C@@H]2COP(=O)(O)O[C@H]3C[C@H](n4cnc5c(N)ncnc54)O[C@@H]3COP(=O)(O)O[C@@H]12	1.8
Nc1ncnc2c1ncn2[C@@H]1CO[C@@H]2COP(=O)(S)O[C@H]3[C@@H](F)[C@H](n4cnc5c(N)ncnc54)O[C@@H]3COP(=O)(S)O[C@@H]12 (some centres unmarked)	8.5
Nc1ncnc2c1ncn2[C@@H]1CO[C@@H]2COP(=O)(O)O[C@H]3[C@@H](F)[C@H](n4cnc5c(N)ncnc54)O[C@@H]3COP(=O)(O)O[C@@H]12	5.6
Nc1nc2c(ncn2[C@@H]2O[C@@H]3COP(=O)(O)O[C@H]4[C@H](n5cnc6c(N)ncnc65)CO[C@@H]4COP(=O)(O)O[C@H]3[C@H]2F)c(=O)[nH]1	8.5
